test: S. cerevisiae RM11-1a growth modifiers, primary screen, strain RM11-1a, OD600, basal, 24 h (AID 1177); details: OD600, 24 h, higher = more signal, called active from +8 up or from −8 down;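 note: cultures grown under basal conditions with no added stressor; test concentration not given here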
Please mark True if the recorded z-score is equal to or greater than 1, and False if it falls below.

[[record]]
entry_smiles = "CC(=O)NCCCC[C@@H]1NC(=O)[C@H]2C[C@@H](C(=O)NCCCCCCN(C)C)[C@@H](c3ccc(O)cc3)N2C1=O"
assigned_category = "False"

[[record]]
entry_smiles = "O=C(NCc1ccccc1)[C@@]1(Cc2ccccc2)COC(c2ccc(OCCCO)cc2)=N1"
assigned_category = "True"

[[record]]
entry_smiles = "CO[C@H]1COC(=O)CC=C[C@H](C)COC(=O)[C@@H](OCc2ccccc2)C=C[C@@H]1C"
assigned_category = "False"

[[record]]
entry_smiles = "O=C(CS)NCCCCCNC(=O)[C@H]1C[C@H]2C(=O)N[C@@H](Cc3ccccc3)C(=O)N2[C@H]1c1ccc(O)cc1"
assigned_category = "False"

[[record]]
entry_smiles = "CC(C)NC(=O)[C@@]1(Cc2ccccc2I)c2ccccc2C(=O)N(C2CCCCC2)[C@H]1c1ccc(CO)cc1"
assigned_category = "True"

[[record]]
entry_smiles = "COCCOC(=O)N1C(=O)[C@@]2(c3cc(C#CC4=CCCCC4)ccc31)[C@H](C(=O)NC[C@H](O)c1ccccc1)[C@H]1C(=O)O[C@H](c3ccccc3)[C@H](c3ccccc3)N1[C@@H]2c1ccc(OCCO)cc1"
assigned_category = "True"

[[record]]
entry_smiles = "COCCCNC(=O)[C@@]1(Sc2ccc(C)cc2)CC(=O)N(Cc2cc(C(F)(F)F)cc(C(F)(F)F)c2)[C@@H]1c1ccc(CO)cc1I"
assigned_category = "False"


###

experiment: binders of probe aFSTL3 on microarray, primary screen, stem cell growth factor project, biochemical, small-molecule microarray, fluorescence 635/667 (AID 1064); conditions: higher = more signal;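 note: measures binding of the biotinylated anti-FSTL3 antibody to printed compounds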
# maps each entry to its composite z-score
ENDPOINT NAME: composite z-score

[[record]]
entry_smiles = "C=C(CCCC)/C(=C/C[C@H](OC(=O)c1ccncc1)c1cccc(OCCO)c1)c1cc(C(=O)OC)ccc1OC"
endpoint_name = "composite z-score"
observed_result = -0.195

[[record]]
entry_smiles = "COC(=O)[C@H]1[C@@H]2COc3ccccc3[C@H]2N[C@H]1C(=O)OC"
endpoint_name = "composite z-score"
observed_result = -0.241

[[record]]
entry_smiles = "CSCC[C@@H]1NC(=O)CC=C[C@@H](C)COC(=O)[C@H](CCSC)NC(=O)CC=C[C@@H](C)COC1=O"
endpoint_name = "composite z-score"
observed_result = -0.678

[[record]]
entry_smiles = "CC(C)(C)OC(=O)CC[C@@]1(C(=O)NCc2ccccc2)N=C(c2ccc(OCCCO)cc2)O[C@@H]1c1ccccc1"
endpoint_name = "composite z-score"
observed_result = 0.844

[[record]]
entry_smiles = "C=CC[C@]1(C(=O)N2CCCCC2)N=C(c2ccc(OCCCO)cc2)O[C@H]1c1ccccc1N=[N+]=[N-]"
endpoint_name = "composite z-score"
observed_result = 1.16

[[record]]
entry_smiles = "COCCOC(=O)N1C(=O)[C@@]2(c3cc(C#CCNC(N)=O)ccc31)[C@H](c1ccccc1OCCO)N1[C@H](c3ccccc3)[C@H](c3ccccc3)OC(=O)[C@H]1[C@@H]2C(=O)NC[C@H](O)c1ccccc1"
endpoint_name = "composite z-score"
observed_result = -0.342

[[record]]
entry_smiles = "COc1ccc(-c2cc3c(c(-c4ccccc4)n2)[Si](C(C)C)(C(C)C)O[C@H]3c2ccccc2)cn1"
endpoint_name = "composite z-score"
observed_result = -0.248

